Cited source: the EternaBench riboswitch data

Assign apparent Kd to each entry below.
Tested on: MS2 coat protein
Test: apparent Kd, MS2 coat protein; higher = weaker binding; RNA-MaP array; FMN 200 µM where present
Settings: designed as: OFF switch for flavin mononucleotide; no ligand
Numbers only, in nM.

Below are worked cases with known answers.
GAGAUGUGAGGAUAUCUAGACCGCGGAAGAGCCGCAGUCCGAGAGAAGGCACAUGAGGAUCACCCAUGUGAUGA = 33.4
ACUUAUGAAGGAUAUACUAGCGACAUGCACUCAACACACGCACAUGAGGAUCACCCAUGUAGAAGGUCAAACAU = 25.7
UAAUCAUGUCCGUAUGUUUUCAGAGAGGAUAUACAUGCGGGCACCUUAACAUGAGGAUCACCCAUGUAGAAGGCUCUGAAAAUG = 97.3

Value sought for every listed sequence: apparent Kd.
1. CUUAUGUGAGGAUAUGUACAGAAAAAAAAGGGUGUAACUGUACAGAAGGCACAUGAGGAUCACCCAUGUGCAUU
2. AAAAAGCGAGGAUAUACAUGAGGAUCACCCAUGUCAAAAAAAUAGAAAAAAAUAAAAAGUAGAAGGCGCAAAAA

Data returned:
1: 60.8; 2: 58.8

Record apparent Kd per entry; entries follow.
1. UUUUAACAUGAGGAUCACCCAUGUGAGGAUAUCGAAAUUUAUAUUUAUAUUAAUAUAUCGAGAAGGCACAUUUU
2. CUAUCGUUGCAGAAGGUUAAAUAAUUUCUCAUCUUGUUUACAUGAGGAUCACCCAUGUAUUUGUUGAAGGAUAUGCAAGUGUUG

Data returned:
[99, 12.5]

---

Tested on: MS2 coat protein
Assay: apparent Kd, MS2 coat protein; higher = weaker binding; RNA-MaP array; FMN 200 µM where present
Details: ligand present: flavin mononucleotide; designed as: OFF switch for flavin mononucleotide
// label = Satisfied if apparent Kd is not less than 40 nM, otherwise Not satisfied

Here's what some known entries look like.
CAGGUCUGAGGAUAUCCAUCUUCAUACAUGAGGAUCACCCAUGUUUACCUUUGGGUUUUUGGAGAAGGCAGUUUUU = Satisfied
CCUAUGUGAGGAUAUCACUGGUCUUUUCAUUAGAUGAUCAGUGAGAAGGCACAUGAGGAUCACCCAUGUCAGUG = Not satisfied
UACAUGAGGAUCACCCAUGUUUUGUCGUGUAUGGUAUUUAUCUAGGAUAUCAAUUGAGUUAUUUAUGAGAAGGAGAAUAUUAAU = Satisfied

Data request: Can CUGUUAUAGGUCCAGAAUUACAACAUGAGGAUCACCCAUGUGCAGGAUAUCGGGUUGAUAGGCGCCGAGAAGGGUAUAGUCACG be said to have apparent Kd at or above 40 nM?
Data returned: Satisfied

Data request: Then what about the sequence CGUACCAUGUAGAAGGCAUAUCUCAAAGAGAUAUGAGGAUAUACAUGAGGAUCACCCAUGUAAAUGUACUCCAGGAAACUGGAA ?
Data returned: Satisfied

Data request: Then UAAGUUUUGGUAGGAUAUACUUUAAAUUUCUCUAUCCAUACAUGAGGAUCACCCAUGUUUACAUUGUAGAAGGACCUUUAUGUU ?
Data returned: Not satisfied

Data request: Also CCGACCCAAGGAUAUUGUACUGCUGACAUGAGGAUCACCCAUGUAUGUUAACUCGGCCGACGAGAAGGUGGCGACA , if possible.
Data returned: Not satisfied

---

Test system: MS2 coat protein
Assay: apparent Kd, MS2 coat protein; higher = weaker binding; RNA-MaP array
Details: designed as: OFF switch for flavin mononucleotide; no ligand
Would you kindly list apparent Kd for each of these sequences?
Please report the result as a number followed by the unit.

Example entries and their recorded answers appear below.
UUCGACAGCGUGAGGAUAUCUACAUCGGGUAGGUGAGAGAAGGCACAUGAGGAUCACCCAUGUUCUGAAGAGCA = 16 nM
GUUAGUUGUGAGGAUAUUCAGAGAUCUCGAUCAGAAGAAGGCACUACAUGAGGAUCACCCAUGUAGAUUCUUAU = 5.25 nM
CGGGAACAUGAGGAUCACCCAUGUCAGGAUAUACGCGAUGGCAACAGUGAUUGUUUGUGUAGAAGGGACUUACG = 33.3 nM
CAUUUCUUCACAGGAUAUGCCGUACAUGAGGAUCACCCAUGUGGGUGGGCGUAGCACUGUAGUGCGCAGAAGGGUGGAUCCGAC = 113 nM
AUAGCAAAAGUGAGGAUAUUCGACAUAGAACGCAUGAAGAAGGCACAUGAGGAUCACCCAUGUUCUCGUUAGUA = 10.6 nM

Below is a list of sequences. For each, state its recorded apparent Kd.
1. AAGUAGGAAGGAUAUACAUGAGGAUCACCCAUGUAAGGCAUUUGGCUAUAAUCGUUAAGUAGAAGGUCCUGCCG
2. GACAUCCUCACAAUACAUGAGGAUCACCCAUGUGAAGUGGCCUAGGAUAUUCAAGAGUGGGUCACGAAGAAGGAGGCUGCAGGA

Data returned:
1: 8.6 nM; 2: 33.3 nM

Dear reader, for each entry below, please note its apparent Kd.
1. GCAGUUGGUCUCUCACAUGAGGAUCACCCAUGUUCUUAGUUUCAGGAUAUAUGAGCGAAUUGCGGAUAGAAGGGAAACAGUCAC
2. GACGCUGCAGGAUAUACUACGAGACUCACCCACAUUAUAUGACAUGAGGAUCACCCAUGUAGAAGGGCAAUGUG
3. UAGAUAUGAGGAUAUACAUGAGGAUCACCCAUGUGGUUAUCAAACGACAUGACAUUUAGUAGAAGGCAAACAUC
4. AACAUUAGAGGAUAUAUCAUCUUUCACAUGAGGAUCACCCAUGUUCCUCAGUGUUAGUGUAUAGAAGGCUAAGACA
5. ACGGUAGUACAUGAGGAUCACCCAUGUGGUUUUCUAAGAGGAUAGGAUAUACGUCCAAGCGGCAGGUAGAAGGAUCGAGUUUGC

Data returned:
1: 41.6 nM; 2: 10.4 nM; 3: 23.5 nM; 4: 279 nM; 5: 41.7 nM

List reported apparent Kd for each of these sequences:
1. AUCACUGAGCGAGGAUAUUAUUUCAAAUCAACGACGAUCCUACACAUGAGGAUCACCCAUGUUAGUAAGAAGGCGCGCCAGAUG
2. GGUUGACAUGAGGAUCACCCAUGUGAGGAUAUAACAAGUGGGAGCUCUCCAUGAAAAGUUAGAAGGCACUUGGU
3. GGAAUCUUUCGAGGAUAUGUCCCACAAUAGUGCCUACCGGGUAACAUGAGGAUCACCCAUGUGAGACAGAAGGCGAGGUUUGGC
4. GGCGUAUCAGGAUAUGCGUUUUGAGACAUGAGGAUCACCCAUGUCCUUAGCUCAGUUAAAGCAGAAGGGAUUAUUA

Data returned:
["62.5 nM", "61.8 nM", "9.86 nM", "16.9 nM"]

---

System: MS2 coat protein
Test: apparent Kd, MS2 coat protein; higher = weaker binding; RNA-MaP array; FMN 200 µM where present
Settings: ligand present: flavin mononucleotide; designed as: OFF switch for flavin mononucleotide
Field: apparent Kd. Provide a value for each of the sequences that follow.
Hi, when you answer, please include the unit after the number. Thanks!

ACAUUUGGAGGAUAUACCGCUAAGUCAAAUGCAGACCUCCCACAUGAGGAUCACCCAUGUAGAAGGUCAUCUGG = 17.6 nM

I would be grateful if you could provide apparent Kd for each of the following entries.
1. AAAAAGCGAGGAUAUGCAUAAGGACCCGGGAGGGAAAUCAAACAUGAGGAUCACCCAUGUAGAAGGCGCAAAAA
2. GAUUAGUGAGGAUAUAUUUACGAUCCUCAGCUUUAUUCAGGACAUGAGGAUCACCCAUGUAGAAGGCGUUAAUC
3. UCAUGUUAGCAGGAUAUGCUAUUUAUUUUUUAUGCAGAAGGGCUUACAUGAGGAUCACCCAUGUAUUAAGUUUU
4. GGAUUACAUGAGGAUCACCCAUGUGAGGAUAUCGAUGUCCUCAAUCAAGUGCGGGACUCGAGAAGGCACUUGGA
5. UCCGUGGCAUCUCGCGCAUGUCUACAUGAGGAUCACCCAUGUCAGGAUAUACGGAUUGUCGUUCUGUAGAAGGGACAAGGGCUG
6. CCUUGACAUGAGGAUCACCCAUGUGAGGAUAUAGAAUACUUCAUACACUGACCUCCUUCUAGAAGGCACAUCUC

Data returned:
["23.3 nM", "34.6 nM", "19.1 nM", "30.9 nM", "108 nM", "15.1 nM"]

---

Can you tell me apparent Kd for the items I'm about to list?
System: MS2 coat protein
Assay: apparent Kd, MS2 coat protein; higher = weaker binding; RNA-MaP array; FMN 200 µM where present
Details: designed as: OFF switch for flavin mononucleotide; no ligand
Numbers only, in nM.

Illustrative cases are given below, each with its answer.
CUCGUGUAAGGAUAUACGAGUCACGGAAAUAAACCGUGAAGGUAGAAGGUACAUGAGGAUCACCCAUGUAAAAC = 40
GUCAGCUCGUGAGGAUAUACAUGUGCUGGAUACAGCACUAUUGAGUUCACAUGAGGAUCACCCAUGUAGAAGGCACGAGCUGAU = 15.1
GACUGCUGAGGAUAUACAUGAGGAUCACCCAUGUGCUUCAGCUACGAGAGUAGCAUUGGUAGAAGGUAGUAGUC = 12.1

# map each sequence to its apparent Kd
1. GGUGGACAUGAGGAUCACCCAUGUGAGGAUAUCGGCUAUCUACUCGCUGACGGUUGCUCGAGAAGGCACAUUGU
2. UGAUAACAUGAGGAUCACCCAUGUCAGGAUAUAAAUUGAGCUCCUUGGACGCCACCGUUUAGAAGGGACGCAUG
3. GGAUUACAUGAGGAUCACCCAUGUGAGGAUAUCGAUGUCCCUAGGAGCGUGCGGGACUCGAGAAGGCACUUGGA
4. GGAUUACAUGAGGAUCACCCAUGUGAGGAUAUCGAUGUCCCUUGGCGCGUGCGGGACUCGAGAAGGCACUUGGA
5. GUCAGCUCGUGAGGAUAUACAACACUGCUUCGGCAGUGUAUUAAGAUCACAUGAGGAUCACCCAUGUAGAAGGCACGAUCUGAU
6. GGUGCGUAUGUGAGGAUAUGCUGGUCCUUGGAUCAGCAGAAGGCACAUGAGGAUCACCCAUGUGGUGUCGUACA
7. AACCGCGACCGGCCUGGCACGUCGAGAAGGGUACGUGACCUGCUUUACAUGAGGAUCACCCAUGUACAGGAUAUCGAAUAGCCG

Data returned:
[126, 23.7, 39.7, 47.8, 13.6, 347, 5.97]
